biological target: UniProt D3Z7P3; experiment: Glutaminase enzyme activity using glutaminase enzyme from mice brain/kidney homogenate (Nessler's reagent, ammonia); format: biochemical; details: 0.1 μM; mice brain homogenate; read-out: Glutaminase(Brain) activity % inhibition 0.1 μM
The entries below come with measured inhibition at 0.1 µM values attached.

// below: answered molecules
- O=C(Cc1ccccc1F)Nc1ccc(N2CCC(c3nnc(NC(=O)Cc4ccccn4)s3)CC2)nn1 [Example-14]: 75 to 100%
- O=C(Cc1ccccn1)Nc1ccc(N2CCC(c3nnc(NC(=O)Cc4ccccc4F)s3)CC2)nn1 [Example-23]: 50 to 75%
- O=C(Cc1cccc(OC(F)(F)F)c1)Nc1ccc(N2CCC(c3nnc(NC(=O)Cc4cnccn4)s3)CC2)nn1 [Example-15]: 50 to 75%

# evaluate next
Fill in inhibition at 0.1 µM for record O=C(Cc1cccc(OC(F)(F)F)c1)Nc1ccc(N2CCC(c3nnc(NC(=O)Cc4cccnc4)s3)CC2)cn1 [Example-4] 25 to 50%

###

biological target: Glutaminase(Brain) (Mus musculus); experiment: Glutaminase enzyme activity using glutaminase enzyme from mice brain/kidney homogenate (Nessler's reagent, ammonia); format: biochemical; conditions: 0.1 μM; mice brain homogenate; read-out: Glutaminase(Brain) activity % inhibition 0.1 μM
Sequence (D3Z7P3 55-674): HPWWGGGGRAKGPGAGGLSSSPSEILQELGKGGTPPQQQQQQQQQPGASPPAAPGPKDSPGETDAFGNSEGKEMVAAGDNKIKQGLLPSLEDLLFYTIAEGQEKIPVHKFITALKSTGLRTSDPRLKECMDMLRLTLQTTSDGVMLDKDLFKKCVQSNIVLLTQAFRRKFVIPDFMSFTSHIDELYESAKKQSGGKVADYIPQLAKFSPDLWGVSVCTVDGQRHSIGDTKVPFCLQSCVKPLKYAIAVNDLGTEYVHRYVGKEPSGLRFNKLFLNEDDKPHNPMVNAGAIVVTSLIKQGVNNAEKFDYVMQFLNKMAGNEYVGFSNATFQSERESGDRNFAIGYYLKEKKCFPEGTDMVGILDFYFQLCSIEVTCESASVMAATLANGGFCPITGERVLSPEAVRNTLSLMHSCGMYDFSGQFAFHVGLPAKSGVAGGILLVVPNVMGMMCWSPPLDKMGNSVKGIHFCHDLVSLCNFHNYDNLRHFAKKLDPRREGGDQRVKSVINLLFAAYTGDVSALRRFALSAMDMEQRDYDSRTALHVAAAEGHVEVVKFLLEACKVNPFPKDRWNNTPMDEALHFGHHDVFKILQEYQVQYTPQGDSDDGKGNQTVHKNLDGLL
measured-parameter: inhibition at 0.1 µM

// worked examples, inhibition at 0.1 µM included
* O=C(Cc1cccc(OC(F)(F)F)c1)Nc1ccc(N2CCC(c3nnc(NC(=O)Cc4cccc(N5CCC5)c4)s3)CC2)nn1 [Example-34] | 25 to 50%
* O=C(Cc1ccccn1)Nc1ccc(N2CCC(c3nnc(NC(=O)Cc4cc(Cl)ccc4C(F)(F)F)s3)CC2)nn1 [Example-28] | 50 to 75%
* O=C(Cc1cccc(OC(F)(F)F)c1)Nc1ccc(N2CCC(c3nnc(NC(=O)Cc4c[nH]c5ccccc45)s3)CC2)nn1 [Example-32] | 25 to 50%
* O=C(Cc1cccc(OC(F)(F)F)c1)Nc1ccc(N2CCCC(c3nnc(NC(=O)Cc4ccccc4Cl)s3)C2)nn1 (stereo not drawn) [Example-13] | < 25%
* O=C(Cc1cccc(OC(F)(F)F)c1)Nc1ccc(N2CCC(c3nnc(NC(=O)Cc4cccnc4)s3)CC2)nn1 [Example-10] | 50 to 75%

Pending compound:
Assign inhibition at 0.1 µM to the following record: O=C(Cc1cccnc1)Nc1ccc(N2CCC(c3nnc(NC(=O)Cc4cccc(OC(F)(F)F)c4)s3)CC2)nn1 [Example-18] 75 to 100%
